Experiment: Plasma pharmacokinetics of Z-endoxifen (HPLC assay, non-compartmental analysis)
Assay type: in vivo, human
Conditions: human, plasma, po, 100 mg/day, DL4 100 mg/day oral, day 28, individual patients; read-out: Tmax
Experimental: This was an open-label trial of Z-endoxifen in patients with advanced solid tumors (https://clinicaltrials.gov/ identifier: NCT01273168). […] Plasma and urine concentrations of Z- and E-endoxifen were measured using a validated, post-column fluorescence derivatization HPLC assay. Non-compartmental pharmacokinetic parameters were calculated using WinNonlin version 7.0 (Pharsight Corp., Mountainview, CA, USA). […] The amount of Z-endoxifen excreted in urine was measured over a 24-hour collection period.
endpoint: Tmax
Answer format reminder: number followed by unit.

Could you share which Tmax value was measured for CC/C(=C(\c1ccc(O)cc1)c1ccc(OCCNC)cc1)c1ccccc1 [Z-endoxifen] ?
2 h

---

Experiment: Plasma pharmacokinetics of Z-endoxifen (HPLC assay, non-compartmental analysis)
Format: in vivo, human
Settings: human, plasma, po, 20 mg, DL1 20 mg oral, day 1, individual patients; read-out: AUC(0-24h)
endpoint: AUC(0-t) (ng·h/mL)
Answer in ng·h/mL, number only, no unit symbol.

Could you share which AUC(0-t) value was measured for CC/C(=C(\c1ccc(O)cc1)c1ccc(OCCNC)cc1)c1ccccc1 [Z-endoxifen] ?
1030

---

Test: Plasma pharmacokinetics of Z-endoxifen (HPLC assay, non-compartmental analysis)
Type: in vivo, human
Conditions: human, plasma, po, 100 mg, DL4 100 mg oral, day 1, mean; read-out: C24h, Mean
endpoint: concentration at 24 h (µg/mL)
Answer in µg/mL, number only, no unit symbol.

Could you share which concentration at 24 h value was measured for CC/C(=C(\c1ccc(O)cc1)c1ccc(OCCNC)cc1)c1ccccc1 [Z-endoxifen] ?
0.155

---

Assay: Plasma pharmacokinetics of Z-endoxifen (HPLC assay, non-compartmental analysis)
Type: in vivo, human
Details: human, plasma, po, 200 mg/day, DL6 200 mg/day oral, day 28, individual patients; read-out: Adjusted Half-Life (converted)
endpoint: half-life (h)
Answer in h, number only, no unit symbol.

Could you share which half-life value was measured for CC/C(=C(\c1ccc(O)cc1)c1ccc(OCCNC)cc1)c1ccccc1 [Z-endoxifen] ?
34.8

---

Test: Plasma pharmacokinetics of Z-endoxifen (HPLC assay, non-compartmental analysis)
Assay type: in vivo, human
Details: human, plasma, po, 20 mg/day, DL1 20 mg/day oral, day 28, individual patients; read-out: Adjusted Half-Life (converted)
endpoint: half-life (h)
Answer in h, number only, no unit symbol.

Could you share which half-life value was measured for CC/C(=C(\c1ccc(O)cc1)c1ccc(OCCNC)cc1)c1ccccc1 [Z-endoxifen] ?
38.9

---

Experiment: Plasma pharmacokinetics of Z-endoxifen (HPLC assay, non-compartmental analysis)
Assay type: in vivo, human
Conditions: human, plasma, po, 100 mg, DL4 100 mg oral, day 1, individual patients; read-out: Tmax
endpoint: Tmax (h)
Answer in h, number only, no unit symbol.

Could you share which Tmax value was measured for CC/C(=C(\c1ccc(O)cc1)c1ccc(OCCNC)cc1)c1ccccc1 [Z-endoxifen] ?
1

---

Experiment: Plasma pharmacokinetics of Z-endoxifen (HPLC assay, non-compartmental analysis)
Type: in vivo, human
Settings: human, plasma, po, 100 mg/day, DL4 100 mg/day oral, day 28, individual patients; read-out: Adjusted Half-Life (converted)
endpoint: half-life

Could you share which half-life value was measured for CC/C(=C(\c1ccc(O)cc1)c1ccc(OCCNC)cc1)c1ccccc1 [Z-endoxifen] ?
36.8 h

---

Test: Plasma pharmacokinetics of Z-endoxifen (HPLC assay, non-compartmental analysis)
Format: in vivo, human
Conditions: human, plasma, po, 40 mg/day, DL2 40 mg/day oral, day 28, individual patients; read-out: C24h
endpoint: concentration at 24 h (ng/mL)
Answer in ng/mL, number only, no unit symbol.

Could you share which concentration at 24 h value was measured for CC/C(=C(\c1ccc(O)cc1)c1ccc(OCCNC)cc1)c1ccccc1 [Z-endoxifen] ?
136

---

Assay: Plasma pharmacokinetics of Z-endoxifen (HPLC assay, non-compartmental analysis)
Assay type: in vivo, human
Settings: human, plasma, po, 140 mg, DL5 140 mg oral, day 1, mean; read-out: AUC(0-24h), Mean
endpoint: AUC(0-t) (ng·h/mL)
Answer in ng·h/mL, number only, no unit symbol.

Could you share which AUC(0-t) value was measured for CC/C(=C(\c1ccc(O)cc1)c1ccc(OCCNC)cc1)c1ccccc1 [Z-endoxifen] ?
9760

---

Test: Plasma pharmacokinetics of Z-endoxifen (HPLC assay, non-compartmental analysis)
Assay type: in vivo, human
Conditions: human, plasma, po, 60 mg, DL3 60 mg oral, day 1, mean; read-out: Cmax, Mean
endpoint: Cmax (ng/mL)
Answer in ng/mL, number only, no unit symbol.

Could you share which Cmax value was measured for CC/C(=C(\c1ccc(O)cc1)c1ccc(OCCNC)cc1)c1ccccc1 [Z-endoxifen] ?
122

---

Experiment: Plasma pharmacokinetics of Z-endoxifen (HPLC assay, non-compartmental analysis)
Assay type: in vivo, human
Settings: human, plasma, po, 60 mg/day, DL3 60 mg/day oral, day 28, mean; read-out: Tmax, Mean
endpoint: Tmax (h)
Answer in h, number only, no unit symbol.

Could you share which Tmax value was measured for CC/C(=C(\c1ccc(O)cc1)c1ccc(OCCNC)cc1)c1ccccc1 [Z-endoxifen] ?
10.8

---

Test: Plasma pharmacokinetics of Z-endoxifen (HPLC assay, non-compartmental analysis)
Format: in vivo, human
Settings: human, plasma, po, 60 mg, DL3 60 mg oral, day 1, mean; read-out: AUC(0-24h), Mean
Experimental: This was an open-label trial of Z-endoxifen in patients with advanced solid tumors (https://clinicaltrials.gov/ identifier: NCT01273168). […] Plasma and urine concentrations of Z- and E-endoxifen were measured using a validated, post-column fluorescence derivatization HPLC assay. Non-compartmental pharmacokinetic parameters were calculated using WinNonlin version 7.0 (Pharsight Corp., Mountainview, CA, USA). […] The amount of Z-endoxifen excreted in urine was measured over a 24-hour collection period.
endpoint: AUC(0-t) (ng·h/mL)
Answer in ng·h/mL, number only, no unit symbol.

Could you share which AUC(0-t) value was measured for CC/C(=C(\c1ccc(O)cc1)c1ccc(OCCNC)cc1)c1ccccc1 [Z-endoxifen] ?
2140

---

Assay: Plasma pharmacokinetics of Z-endoxifen (HPLC assay, non-compartmental analysis)
Assay type: in vivo, human
Details: human, plasma, po, 360 mg, HCl salt, 360 mg oral, day 2 (after free base on day 1), patients 35 and 36 individually; read-out: C24 h
endpoint: concentration at 24 h (ng/mL)
Answer in ng/mL, number only, no unit symbol.

Could you share which concentration at 24 h value was measured for CC/C(=C(\c1ccc(O)cc1)c1ccc(OCCNC)cc1)c1ccccc1 [Z-endoxifen] ?
827

---

Test: Plasma pharmacokinetics of Z-endoxifen (HPLC assay, non-compartmental analysis)
Assay type: in vivo, human
Settings: human, plasma, po, 40 mg, DL2 40 mg oral, day 1, individual patients; read-out: AUC(0-24h)
endpoint: AUC(0-t) (ng·h/mL)
Answer in ng·h/mL, number only, no unit symbol.

Could you share which AUC(0-t) value was measured for CC/C(=C(\c1ccc(O)cc1)c1ccc(OCCNC)cc1)c1ccccc1 [Z-endoxifen] ?
1290

---

Test: Plasma pharmacokinetics of Z-endoxifen (HPLC assay, non-compartmental analysis)
Type: in vivo, human
Details: human, plasma, po, 140 mg/day, DL5 140 mg/day oral, day 28, mean; read-out: C24h, Mean
endpoint: concentration at 24 h (ng/mL)
Answer in ng/mL, number only, no unit symbol.

Could you share which concentration at 24 h value was measured for CC/C(=C(\c1ccc(O)cc1)c1ccc(OCCNC)cc1)c1ccccc1 [Z-endoxifen] ?
563

---

Test: Plasma pharmacokinetics of Z-endoxifen (HPLC assay, non-compartmental analysis)
Assay type: in vivo, human
Conditions: human, plasma, po, 360 mg, HCl salt, 360 mg oral, day 2 (after free base on day 1), mean of patients 35 and 36; read-out: C24 h, Mean
endpoint: concentration at 24 h
Answer format reminder: number followed by unit.

Could you share which concentration at 24 h value was measured for CC/C(=C(\c1ccc(O)cc1)c1ccc(OCCNC)cc1)c1ccccc1 [Z-endoxifen] ?
1.47 µg/mL

---

Assay: Plasma pharmacokinetics of Z-endoxifen (HPLC assay, non-compartmental analysis)
Assay type: in vivo, human
Settings: human, plasma, oral, 20 mg/day, DL1 (20 mg/day), day 28; read-out: average plasma concentration
endpoint: concentration at 28 day (nM)
Answer in nM, number only, no unit symbol.

Could you share which concentration at 28 day value was measured for CC/C(=C(\c1ccc(O)cc1)c1ccc(OCCNC)cc1)c1ccccc1 [Z-endoxifen] ?
353

---

Assay: Plasma pharmacokinetics of Z-endoxifen (HPLC assay, non-compartmental analysis)
Assay type: in vivo, human
Details: human, plasma, po, 40 mg/day, DL2 40 mg/day oral, day 28, individual patients; read-out: Cmax
endpoint: Cmax (ng/mL)
Answer in ng/mL, number only, no unit symbol.

Could you share which Cmax value was measured for CC/C(=C(\c1ccc(O)cc1)c1ccc(OCCNC)cc1)c1ccccc1 [Z-endoxifen] ?
321
